In this section we review reported IC50 values for a set of compounds.
Experiment: Cytotoxicity against human LCC-6 cells after 72 hrs
Assay type: functional, cell-based
Details: LCC-6, 72 h

Recorded IC50 of `O=C1c2ccccc2C(=O)N1CCN(CCOCCOc1ccc(-c2cc(=O)c3ccccc3o2)cc1)CCOCCOc1ccc(-c2cc(=O)c3ccccc3o2)cc1` , please.
8.6 µM

###

Assay: Reversal of P-gp-mediated mitoxantrone-resistance in human LCC6MDR cells after 5 days by MTS assay
Format: cell-based
Conditions: 120 h
property: pEC50
Quick note: pEC50 values are minus log10 of concentrations in mol/L.

I have this molecule here, `O=c1cc(-c2ccc(OCCOCCN(CCOCCOc3ccc(-c4cc(=O)c5ccccc5o4)cc3)Cc3ccccc3)cc2)oc2ccccc12` , and I need its recorded pEC50.
7.05
